# assayTarget: T1, biotinylated Fc-fused monkey CD137 (monkey, biotin on the AviTag)
# T1 construct: also called cyCD137-Fc-BAP
# T1 sequence (chain, as listed by the source limits assumed): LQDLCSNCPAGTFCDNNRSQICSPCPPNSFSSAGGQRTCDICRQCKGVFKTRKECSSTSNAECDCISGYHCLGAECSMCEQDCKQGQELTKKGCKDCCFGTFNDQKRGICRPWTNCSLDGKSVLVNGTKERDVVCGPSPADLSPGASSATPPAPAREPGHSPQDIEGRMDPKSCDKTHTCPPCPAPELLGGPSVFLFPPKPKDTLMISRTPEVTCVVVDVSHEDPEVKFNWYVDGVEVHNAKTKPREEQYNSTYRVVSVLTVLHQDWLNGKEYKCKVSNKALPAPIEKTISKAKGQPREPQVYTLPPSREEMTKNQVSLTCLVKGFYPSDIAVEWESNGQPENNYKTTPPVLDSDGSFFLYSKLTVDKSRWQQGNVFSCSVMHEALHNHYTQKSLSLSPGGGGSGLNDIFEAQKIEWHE
# testProtocol: ELISA, 1 mM ADP, 0.156 ug/mL
# Parameters: reference not given here
measuredQuantity: absorbance ratio
Lab note: record the figure alone, no unit after it.

## Input What does the record list as absorbance ratio for dBBAT015-P253 (antibody, human IgG1, lambda, V domains shown) VH: EVQLVESGGDLVKPGGGLRLSCAASGFTFSTYTMNWVRQAPGKGLEWVSSISSRSTYATYADSVKGRFTISRDNAKNSLYLQMNSLRAEDTAVYYCARYGLKNSLNWVFDYWGQGTLVTVSS VL: QSALTQPPSASGSPGQTVTISCTGTSTDVGFYNYVSWYQQHPGKAPKLMIYEVSKKPSGVPDRFSGSKSGNTASLTVSGLQAEDEADYFCSTYSYDESVAFGGGTKLTVLG ?
## Output 3.6
